inhibition at 0.01 µM values, listed per item
Target: KRas^WT (Homo sapiens, UniProt P01116)
Construct: Biotinylated KRas (corresponding to amino acids 1-169, produced at Accelegan Inc.); biotin (biotinylated); purchased Accelegan Inc
Sequence (P01116 1-169 isoform P01116-2): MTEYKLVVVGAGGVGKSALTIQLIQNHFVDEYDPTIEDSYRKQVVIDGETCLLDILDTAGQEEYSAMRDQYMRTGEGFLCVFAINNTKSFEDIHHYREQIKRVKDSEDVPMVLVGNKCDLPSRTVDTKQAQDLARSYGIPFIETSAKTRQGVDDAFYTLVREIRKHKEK
Test: KRas binding assay (TR-FRET tracer displacement), KRas WT
Details: single point, 10 nM compound, TR-FRET
Measurement kind: inhibition at 0.01 µM (%)

[[record]]
compound = "CCc1c(F)ccc2cc(O)cc(-c3ncc4c(N5CCCC6(CNS(=O)(=O)N6)C5)nc(OC[C@]56CCCN5[C@H](COC(=O)N(C)C)CC6)nc4c3F)c12 (stereo partly shown)"
reading_unit = "%"
assay_value = 93

[[record]]
compound = "CN(C)C(=O)OC[C@@H]1CC[C@@]2(COc3nc(N4CCC[C@@](C)(O)C4)c4cnc(-c5cc(O)cc6ccc(F)c(F)c56)c(F)c4n3)CCCN12"
reading_unit = "%"
assay_value = 79

[[record]]
compound = "CCc1c(F)ccc2cc(O)cc(-c3ncc4c(N5CCCCn6nc(C(=O)N(C)C)cc6C5)nc(OC[C@@]56CCCN5C[C@H](F)C6)nc4c3F)c12"
reading_unit = "%"
assay_value = 93

[[record]]
compound = "CCc1c(F)ccc2cc(O)cc(-c3ncc4c(N5CCC[C@]6(C5)C[C@@H](O)C6)nc(OC[C@@]56CCCN5[C@H](COC(=O)N(C)C)CC6)nc4c3F)c12"
reading_unit = "%"
assay_value = 66

[[record]]
compound = "CCc1c(F)ccc2cc(O)cc(-c3ncc4c(N5CCCn6nc(C(=O)N(C)C)cc6C5)nc(OC[C@]56CCCN5[C@H](COC(=O)N(C)C)CC6)nc4c3F)c12"
reading_unit = "%"
assay_value = 85

[[record]]
compound = "CCc1c(F)ccc2cc(O)cc(-c3ncc4c(N5CCC[C@]6(C5)C[C@H](O)C6)nc(OC[C@@]56CCCN5[C@H](COC(=O)N(C)C)CC6)nc4c3F)c12"
reading_unit = "%"
assay_value = 86

[[record]]
compound = "CCc1c(F)ccc2cc(O)cc(-c3ncc4c(N5CCC[C@@](C)(O)C5)nc(OC[C@@]56CCCN5[C@H](COC(=O)N5CCCC5)CC6)nc4c3F)c12"
reading_unit = "%"
assay_value = 96

[[record]]
compound = "Oc1cc(-c2ncc3c(N4CCCC5(CCO5)C4)nc(OC[C@@]45CCCN4C[C@H](F)C5)nc3c2F)c2c(Cl)c(F)ccc2c1 (stereo partly shown)"
reading_unit = "%"
assay_value = 90

[[record]]
compound = "CCc1c(F)ccc2cc(O)cc(-c3ncc4c(N5CCCC6(CC(O)C6)C5)nc(OCC5(CN(C)C)CC5)nc4c3F)c12 (stereo not shown)"
reading_unit = "%"
assay_value = 82

[[record]]
compound = "CCc1c(F)ccc2cc(O)cc(-c3ncc4c(N5CCC[C@@](C)(O)C5)nc(OC[C@@]56CCCN5[C@H](COC(=O)N5CCCCC5)CC6)nc4c3F)c12"
reading_unit = "%"
assay_value = 89

[[record]]
compound = "CCc1c(F)ccc2cc(O)cc(-c3ncc4c(N5CCCCn6nc(C(=O)N7CCOCC7)cc6C5)nc(OC[C@@]56CCCN5C[C@H](F)C6)nc4c3F)c12"
reading_unit = "%"
assay_value = 91

[[record]]
compound = "CCc1c(F)ccc2cc(O)cc(-c3ncc4c(N5CCCC6(CCS(=O)(=O)N6)C5)nc(OC[C@@]56CCCN5C[C@H](F)C6)nc4c3F)c12 (stereo partly shown)"
reading_unit = "%"
assay_value = 98

[[record]]
compound = "CCc1c(F)ccc2cc(O)cc(-c3ncc4c(N5CCC[C@@]6(CCO6)C5)nc(OCC5(CN(C)C)CC5)nc4c3F)c12"
reading_unit = "%"
assay_value = 91

[[record]]
compound = "CCc1c(F)ccc2cc(O)cc(-c3ncc4c(N5CCCn6nc(C(=O)N(C)C)c(C)c6C5)nc(OC[C@@]56CCCN5C[C@H](F)C6)nc4c3F)c12"
reading_unit = "%"
assay_value = 98

[[record]]
compound = "CCc1c(F)ccc2cc(O)cc(-c3ncc4c(N5CCC[C@@](C)(O)C5)nc(OC[C@@]56CCCN5[C@H](COC(=O)NC(C)C)CC6)nc4c3F)c12"
reading_unit = "%"
assay_value = 94

[[record]]
compound = "CCc1c(F)ccc2cc(O)cc(-c3ncc4c(N5CCC(O)C(F)(F)CC5)nc(OC[C@@]56CCCN5C[C@H](F)C6)nc4c3F)c12 (stereo partly shown)"
reading_unit = "%"
assay_value = 91

[[record]]
compound = "CCc1c(F)ccc2cc(O)cc(-c3ncc4c(N5CCC[C@]6(CCO6)C5)nc(OCC5(CN(C)C)CC5)nc4c3F)c12"
reading_unit = "%"
assay_value = 91

[[record]]
compound = "CCc1c(F)ccc2cc(O)cc(-c3ncc4c(N5CCC(O)c6nn(C(=O)N(C)C)cc6C5)nc(OC[C@@]56CCCN5C[C@H](F)C6)nc4c3F)c12 (stereo partly shown)"
reading_unit = "%"
assay_value = 91

[[record]]
compound = "CCNC(=O)OC[C@@H]1CC[C@]2(COc3nc(N4CCC[C@@](C)(O)C4)c4cnc(-c5cc(O)cc6ccc(F)c(CC)c56)c(F)c4n3)CCCN12"
reading_unit = "%"
assay_value = 92

[[record]]
compound = "CCc1c(F)ccc2cc(O)cc(-c3ncc4c(N5CCCC6(C5)NC(=O)NC6=O)nc(OC[C@]56CCCN5[C@H](COC(=O)N(C)C)CC6)nc4c3F)c12 (stereo partly shown)"
reading_unit = "%"
assay_value = 91

[[record]]
compound = "CCc1c(F)ccc2cc(O)cc(-c3ncc4c(N5CCC[C@@](C)(O)C5)nc(OC[C@@]56CCCN5[C@H](COC(=O)NC)CC6)nc4c3F)c12"
reading_unit = "%"
assay_value = 84

[[record]]
compound = "CCc1c(F)ccc2cc(O)cc(-c3ncc4c(N5CC6CC(O)C(C6)C5)nc(OC[C@]56CCCN5[C@H](COC(=O)N(C)C)CC6)nc4c3F)c12 (stereo partly shown)"
reading_unit = "%"
assay_value = 76

[[record]]
compound = "CCc1c(F)ccc2cc(O)cc(-c3ncc4c(N5CCCCC(C#N)C5)nc(OC[C@@]56CCCN5C[C@H](F)C6)nc4c3F)c12 (stereo partly shown)"
reading_unit = "%"
assay_value = 68

[[record]]
compound = "CCc1c(F)ccc2cc(O)cc(-c3ncc4c(N5CCCn6nncc6C5)nc(OC[C@@]56CCCN5C[C@H](F)C6)nc4c3F)c12"
reading_unit = "%"
assay_value = 62

[[record]]
compound = "C#Cc1c(F)ccc2cc(O)cc(-c3ncc4c(N5CCC[C@@](C)(O)C5)nc(OCC5(CN6CCCC6)CC5)nc4c3F)c12"
reading_unit = "%"
assay_value = 97

